Values were extracted from patent US5948630A.

What Ki was measured for each of the following?
Biological target: Human Liver ALP (Homo sapiens)
Sequence (P05186 18-502 limits assumed): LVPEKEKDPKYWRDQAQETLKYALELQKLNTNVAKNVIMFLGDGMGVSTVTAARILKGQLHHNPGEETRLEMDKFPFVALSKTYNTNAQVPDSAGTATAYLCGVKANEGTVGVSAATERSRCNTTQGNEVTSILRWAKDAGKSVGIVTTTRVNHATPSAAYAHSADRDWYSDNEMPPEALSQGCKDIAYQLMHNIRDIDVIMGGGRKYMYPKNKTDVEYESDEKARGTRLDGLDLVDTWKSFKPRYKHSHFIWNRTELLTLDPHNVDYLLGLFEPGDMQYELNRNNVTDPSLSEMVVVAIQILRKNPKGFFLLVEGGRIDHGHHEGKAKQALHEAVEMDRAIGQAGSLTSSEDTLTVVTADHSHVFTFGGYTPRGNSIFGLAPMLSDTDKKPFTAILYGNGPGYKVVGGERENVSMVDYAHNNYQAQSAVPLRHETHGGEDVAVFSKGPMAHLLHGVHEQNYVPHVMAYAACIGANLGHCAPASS
Could you give me the number in µM? Just the number is fine.

Requested read-out: Ki. Entry: "Brc1ccc([C@H]2CN3CCSC3=N2)cc1"
98.5

# iterate: C1=CN2CC(c3ccc4ccccc4c3)N=C2S1 (centres unmarked)
30.3
